# Experimental System: Pim-1 (Homo sapiens (Human))
# Sequence (P11309 whole entry): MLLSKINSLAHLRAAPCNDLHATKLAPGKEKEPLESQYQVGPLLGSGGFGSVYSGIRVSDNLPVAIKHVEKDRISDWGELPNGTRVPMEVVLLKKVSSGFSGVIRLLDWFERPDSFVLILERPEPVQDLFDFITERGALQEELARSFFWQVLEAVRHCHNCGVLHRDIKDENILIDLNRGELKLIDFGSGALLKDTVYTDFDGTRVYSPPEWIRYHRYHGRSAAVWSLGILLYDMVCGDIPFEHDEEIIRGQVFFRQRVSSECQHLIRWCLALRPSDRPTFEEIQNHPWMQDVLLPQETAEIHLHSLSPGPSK
# Method Notes: Pim-Mn enzyme assay (HTRF, 384-well), Pim-1
# Type: biochemical
# Conditions Used: Pim-1 enzyme 5 pM, ATP 1.5 μM, BAD (S112) 0.5 μM, HTRF, 22-point curve; read-out: Pim-1-Mn IC50 IP
pIC50: −log10 of the molar value.
Quantity Name: pIC50

The cases that follow already have their pIC50 on record.
{"Molecule": "Cc1nc2cccc(-c3cc4c([nH]3)CNC4=O)c2nc1NC1CC1 [Example 363]", "pIC50": 9.46}
{"Molecule": "Cc1nc2cccc(-c3cc4c([nH]3)[C@@H](C)NC4=O)c2nc1N[C@H]1CCC[C@@H](NCC(F)(F)F)C1 [Example 487]", "pIC50": 9.30}
{"Molecule": "Cc1nc2cccc(-c3cc4c([nH]3)[C@@H](C)NC4=O)c2nc1NC1(C)CC1 [Example 333]", "pIC50": 9.73}

(1) Cc1nc2cccc(-c3cc4c([nH]3)CCNC4=O)c2nc1NC1(C)CCOCC1 [Example 203]
(2) Cc1nc2cccc(-c3cc4n(c3)C(=O)NC4=O)c2nc1NC(C)(C)C [Example 422]
(3) COC(=O)C(C)(C)Nc1nc2c(-c3cc4c([nH]3)CCNC4=O)cccc2nc1C [Example 57]
(4) Cc1nc2cccc(-c3cc4c([nH]3)CCNC4=O)c2nc1N[C@H]1C[C@@H](O)C1 [Example 439]
(5) Cc1nc2cccc(-c3cc4c([nH]3)CCNC4=O)c2nc1NCC1(C)COC1 [Example 281]
**Q:** Order these by pIC50, descending, and give the full ranking. Return the labels ranked in the requested order, please.
**A:** 1, 4, 5, 2, 3

(a) Cc1nc2cccc(-c3cc4c([nH]3)CCCC4=O)c2nc1NC(C)(C)C [Example 303]
(b) CN(c1ncc2cccc(-c3cc4c([nH]3)CCNC4=O)c2n1)C(C)(C)C [Example 377]
**Q:** Sort a and b by pIC50 descending and give the first. Field: selected label. Fill in the label of the entry you choose.
**A:** a
(a: 9.08, b: 8.61)

(P) Cc1nc2cccc(-c3cc4c([nH]3)CCNC4=O)c2nc1N[C@H]1C[C@@H](NCCS(C)(=O)=O)C1 [Example 441]
(Q) CC(C)Nc1nc2c(-c3cc4c([nH]3)[C@@H](C)NC4=O)c(F)ccc2c(=O)n1C1CC1 [Example 490]
(R) CCc1nc2cccc(-c3cc4c([nH]3)CCNC4=O)c2nc1NC(C)(C)C [Example 312]
(S) CCOc1cnc2cccc(-c3cc4c([nH]3)CCNC4=O)c2n1 [Example 337]
**Q:** Order each entry by recorded pIC50, climbing from the minimum. Output the labels ranked as instructed.
**A:** S, P, R, Q

(A) CC(C)(C)Nc1nc2c(-c3cc4c([nH]3)CCNC4=O)cccc2c(=O)n1-c1cccnc1 [Example 404]
(B) Cc1nc2cccc(-c3cc4n(c3)C(=O)NC4)c2nc1NC(C)(C)C [Example 421]
**Q:** For the two items A and B , which reports the higher pIC50 value? Identify your selection by its label.
**A:** A

(a) Cc1nc2cccc(-c3cc4c([nH]3)C(C)N(C(=O)OC(C)(C)C)C4=O)c2nc1NC(C)(C)C (stereo not drawn) [Example 316]
(b) Cn1c(Nc2ccccc2)nc2c(-c3cc4c([nH]3)CCNC4=O)cccc2c1=O [Example 266]
**Q:** Between a and b , which one has the lower reported pIC50 value? Write down the label attached to your selection.
**A:** a

(1) Cc1nc2cccc(-c3cc4c([nH]3)CCNC4=O)c2nc1N[C@H]1CCCNC1 [Example 76]
(2) Cc1nc2cccc(-c3cc4c([nH]3)CCNC4=O)c2nc1N[C@H]1CCNC1 [Example 55]
**Q:** Form: Entry with minimum pIC50 (choose one): 1 / 2 // output: label of the selected item
**A:** 1
(1: 8.09, 2: 9.15)

(a) CC(C)(C)Nc1nc2c(-c3cc4c([nH]3)CCNC4=O)cccc2nc1/C=N/O [Example 308]
(b) Cc1nc2cccc(-c3cc4c([nH]3)CCNC4=O)c2nc1N[C@@H]1CCCNC1 [Example 75]
(c) Cc1nc2cccc(-c3cc4c([nH]3)CCNC4=O)c2nc1NC(C)c1ccncn1 (stereo not drawn) [Example 323]
**Q:** List the 3 entries from lowest pIC50 to highest pIC50 value. Reply format: the labels, ordered as requested.
**A:** c, a, b
(c: 7.08, a: 8.98, b: 9.22)

(I) Cc1nc2cccc(-c3cc4c([nH]3)CCNC4=O)c2nc1NC(C)c1cnccn1 (stereo not drawn) [Example 322]
(II) Cc1nc2cccc(-c3[nH]c4c(c3C)C(=O)NCC4)c2nc1NC(C)(C)C [Example 350]
**Q:** Thinking about recorded pIC50 values, which is higher, I or II ? Kindly state the label of the option you pick.
**A:** II
